target: HIV-1 protease (Human immunodeficiency virus type 1 group M subtype B, UniProt P04585); construct: addition of 2.6nM of HIV-1 protease; experiment: Assay for inhibitory effect on HIV protease (irreversible inhibition kinetics, HPLC readout); assay type: biochemical; conditions: second order rate constant; 2.6nM HIV-1 protease, pH 5.5; KINSIM/FITSIM fit; exact values hard to calculate above 10^9
METRIC_NAME: kinact/KI

Example cases with answers are listed next.
> print(dat)
                                 mol.smiles           experimental.result
1  CCN(c1ccccc1)S(=O)(=O)CC[C@@H]1O[C@@H]1[C@H](Cc1ccccc1)NC(=O)[C@H](CC(N)=O)NC(=O)c1ccc2ccccc2n1  1.67e+07 to 1.67e+08 M⁻¹ s⁻¹
2  CCN(c1ccccc1)S(=O)(=O)CC[C@@H]1O[C@@H]1[C@H](Cc1ccccc1)NC(=O)[C@@H](NC(=O)c1ccc2ccccc2n1)C(C)(C)S(C)(=O)=O  1.67e+07 to 1.67e+08 M⁻¹ s⁻¹

[in] Consider the compound CN(C(C)(C)C)S(=O)(=O)CC[C@@H]1O[C@@H]1[C@H](Cc1ccccc1)NC(=O)[C@@H](NC(=O)COc1cccc2cnccc12)C(C)(C)S(C)(=O)=O . State its measured kinact/KI.
[out] 1.67e+07 to 1.67e+08 M⁻¹ s⁻¹

###

target: HIV-1 protease (Human immunodeficiency virus type 1 group M subtype B, UniProt P04585); construct: addition of 2.6nM of HIV-1 protease; assay: Assay for inhibitory effect on HIV protease (irreversible inhibition kinetics, HPLC readout); type: biochemical; conditions: second order rate constant; 2.6nM HIV-1 protease, pH 5.5; KINSIM/FITSIM fit; exact values hard to calculate above 10^9
# kinact/KI listing for each entry below

> print(dat)
                                   molecule  metric.name           experimental.result
1  CC(C)(C)NS(=O)(=O)CC[C@@H]1O[C@@H]1[C@H](Cc1ccccc1)NC(=O)[C@@H](NC(=O)OCc1ccccc1)C(C)(C)S(C)(=O)=O [Ex. 1]    kinact/KI  1.67e+07 to 1.67e+08 M⁻¹ s⁻¹
2  CN(C(C)(C)C)S(=O)(=O)CC[C@@H]1O[C@@H]1[C@H](Cc1ccccc1)NC(=O)[C@@H](NC(=O)OCc1ccccc1)C(C)(C)S(C)(=O)=O [Ex. 4]    kinact/KI  1.67e+07 to 1.67e+08 M⁻¹ s⁻¹

Kindly review the next molecule as well.
[in] Jot down kinact/KI (HIV-1 protease (Human immunodeficiency virus type 1 group M subtype B, UniProt P04585)) of CC(C)(C)NS(=O)(=O)CC[C@@H]1O[C@@H]1[C@H](Cc1ccccc1)NC(=O)[C@H](CC(N)=O)NC(=O)c1ccc2ccccc2n1 [Ex. 3] .
[out] 1.67e+07 to 1.67e+08 M⁻¹ s⁻¹

###

Here, each record is paired with measured kinact/KI data.
biological target: HIV-1 protease (Human immunodeficiency virus type 1 group M subtype B, UniProt P04585); construct: addition of 2.6nM of HIV-1 protease; assay: Assay for inhibitory effect on HIV protease (irreversible inhibition kinetics, HPLC readout); type: biochemical; details: second order rate constant; 2.6nM HIV-1 protease, pH 5.5; KINSIM/FITSIM fit; exact values hard to calculate above 10^9

Below: 2 compounds and their reported kinact/KI.
> print(dat)
                                   compound           experimental.result
1  CCN(C(C)C)S(=O)(=O)CC[C@@H]1O[C@@H]1[C@H](Cc1ccccc1)NC(=O)[C@@H](NC(=O)c1ccc2ccccc2n1)C(C)(C)S(C)(=O)=O [Ex. 8]  1.67e+07 to 1.67e+08 M⁻¹ s⁻¹
2  CC(C)(C)NS(=O)(=O)CC[C@@H]1O[C@@H]1[C@H](Cc1ccccc1)NC(=O)[C@@H](NC(=O)c1ccc2ccccc2n1)C(C)(C)S(C)(=O)=O [Ex. 2]  1.67e+07 to 1.67e+08 M⁻¹ s⁻¹

Field: next compound
[in] Answer with reported kinact/KI of CC(C)C(NS(=O)(=O)CC[C@@H]1O[C@@H]1[C@H](Cc1ccccc1)NC(=O)[C@@H](NC(=O)OCc1ccccc1)C(C)(C)S(C)(=O)=O)C(C)C [Ex. 9]
[out] 1.67e+07 to 1.67e+08 M⁻¹ s⁻¹

Provenance of the data: patent EP0812857A1
